These data points were gathered from patent US4970226A.

System: P388 murine leukemia cells
test_name: P388 in vitro antitumor screen (inhibition of P388 cell proliferation, MTT assay)
Assay type: cell-based
experimental_setup: Mus musculus; P388 cells, 48-hour incubation, MTT assay
Protocol: P388 murine leukemia cells, obtained from the National Cancer Institute, Bethesda, MD, were maintained at 37° C. in 5% CO2 in humidified air. Growth medium was Roswell Park Memorial Institute medium 1640 supplemented with 10% heat-inactivated horse serum. […] After 48-hour incubations, cell number was determined with the MTT assay (below), calculated as a percent of untreated cell growth, converted to percent inhibition, and reported to the chemist requesting the screen. […]
Measured IC50, listed per entry.

chemical_smiles: Cn1c(-c2cn(C)c3ccccc23)c[n+](C)c1-c1cn(C)c2cc(Br)ccc12
IC50: 0.34 µg/mL
//
chemical_smiles: Brc1ccc2c(-c3nc(-c4c[nH]c5ccccc45)c[nH]3)c[nH]c2c1
IC50: 7.8 µg/mL
//
chemical_smiles: Brc1ccc2c(-c3c[nH]c(-c4c[nH]c5cc(Br)ccc45)n3)c[nH]c2c1
IC50: 7.6 µg/mL
//
chemical_smiles: Brc1ccc2c(-c3c[nH]c(-c4c[nH]c5ccccc45)n3)c[nH]c2c1
IC50: 1.7 µg/mL
